System: ACHN
Test: NCI tumour cell line growth inhibition, 48 h
Activity calls are given as the source filed them. Cut-off read from the data, not from the text of the source: active = GI50 up to about 1.1 µM and inactive = higher.
Your response should consist of one outcome taken from active, inactive

Example results:
O=C1c2ccccc2-c2nc3ccncc3n21    inactive
Oc1cccnc1/C=N/OCc1ccccc1    inactive
CN(C)CC1CCCC(CN(C)C)C1=NOC(=O)c1ccccc1 (stereo not drawn)    inactive
OC(c1nc2ccccc2[nH]1)C(O)C(O)C(O)c1nc2ccccc2[nH]1 (stereo not drawn)    inactive
COC1=CC(=O)C2C(C1=O)[C@@H]1c3ccccc3OC[C@H]21 (stereo partly drawn)    inactive
O=C(CNc1nncs1)NO    inactive
C=CCN1CCC23c4c5ccc(O)c4OC2C(=NN=C2CCC4(O)C6Cc7ccc(O)c8c7C4(CCN6CC=C)C2O8)CCC3(O)C1C5 (stereo not drawn)    inactive
CCOC(=O)CNC(=O)C(CSC(=O)N(O)c1ccc(Br)cc1)NC(=O)CCC(N)C(=O)OCC (stereo not drawn)    inactive

For COC(=O)CNC(=O)CCC(C)[C@H]1CCC2C3C(C[C@H](OC(C)=O)[C@@]21C)[C@@]1(C)CCC2(C[C@H]1C[C@H]3OC(C)=O)OOC1(CC[C@]3(C)C4C[C@H](OC(C)=O)[C@@]5(C)C(CC[C@@H]5C(C)CCC(=O)NCC(=O)OC)C4[C@H](OC(C)=O)C[C@@H]3C1)OO2 (stereo partly drawn) , what call appears in the results of this test?
active

For CSc1nc(NC2OCC(OC(C)=O)C(OC(C)=O)C2OC(C)=O)c2c(OC(C)=O)c(C)c(=O)oc2n1 (stereo not drawn) , what call appears in the results of this test?
inactive

For "CN(C)c1[se]nc2c1c(=O)n(C)c(=O)n2C" , what call appears in the results of this test?
inactive

For "C/C(CCN(C)C)=N/O" , what call appears in the results of this test?
active

For "Cc1nc2ccccc2[nH]/c1=N/Nc1ccccc1" , what call appears in the results of this test?
inactive

For CCC(O)CC1OC2(CCC1C)CC1OC(=O)/C=C\C(C)(O)C(O)C(C)C(O)C(OC3CC(OC)C(O)C(C)O3)C(O)C(C)(O)CCC/C=C/C3CC(C)COC3(O)CC(O2)C1C (stereo not drawn) , what call appears in the results of this test?
inactive

# credit: ChEMBL document CHEMBL1201862
